target: Gal(b1-3)Gal; assay: glycan array binding signal (z-score within array); higher = stronger binding; conditions: glycan notation: IUPAC condensed, linker removed
The full list was thinned out, with the strongest signals kept by preference.
Readout Type: glycan array binding signal (z-score)
Output spec: single numeric token, no unit.

A selection of reference data follows.
PMA (Polygonatum multiflorum) (protein) LLTTTLFVFISSTRSLASTNVLYSDVGNAILNAKESLIYGDYRLDMQSDCNLVLYNKAAPYWASGTRWSWGGNCHLNLQSNGELVMYAYLGRTRIAIWRSGIISATGSYALVLKYDGALHVHGPSLWSTNATGPTTPTTASWSIDSTLWSGDVATIGPTIANGDYKLELLDTCNLTLSNTKTGQVLWYTNTTDWVHDCYVNIEGNGELKIKYLGGATLWSNKVGAGYTNNYVLGLRPDGKLDTYNAPIWSPTIGPGVHVAPAVYNASSNAVAAEGNGEKIAMVTGRAKNST : -0.195
PpFlo1 (Pichia pastoris) (protein) MGSSHHHHHHSSGLVPRGSHMQESGDGDISDSAYACDIDATRYDGFNATIYEFQPGDGRLTRDPVFMSTGYLNRTQLHSITGVTDPGFSIYTPGVPTTTLYGIPNVNWENLLLELKGYFRAEVSGDYGLSLRNIDDSAILFFGKETAFQCCNENSISNEASTDYSLFTIFRQEGDETTNLDSFTYTQYLEAGKYYPVRTFFVNIERHAVFNFTMTLPDGTELTDFHNYIYQFGALDEEQCQA : 0.345
L-Selectin (Homo sapiens), P14151 (protein) MIFPWKCQSTQRDLWNIFKLWGWTMLCCDFLAHHGTDCWTYHYSEKPMNWQRARRFCRDNYTDLVAIQNKAEIEYLEKTLPFSRSYYWIGIRKIGGIWTWVGTNKSLTEEAENWGDGEPNNKKNKEDCVEIYIKRNKDAGKWNDDACHKLKAALCYTASCQPWSCSGHGECVEIINNYTCNCDVGYYGPQCQFVIQCEPLEAPELGTMDCTHPLGNFSFSSQCAFSCSEGTNLTGIEETTCGPFGNWSSPEPTCQVIQCEPLSAPDLGIMNCSHPLASFSFTSACTFICSEGTELIGKKKTICESSGIWSNPSPICQKLDKSFSMIKEGDYNPLFIPVAVMVTAFSGLAFIIWLARRLKKGKKSKRSMNDPY : -0.315

Please look at the following binder next.
What measured glycan array binding signal (z-score) goes with MGL1 (Mus musculus), P49300 (protein) MIYENLQNSRIEEKTQEPGKAPSQSFLWRILSWTHLLLFSLGLSLLLLVVVSVIGSQNSQLRRDLGTLRATLDNTTSKIKAEFQSLDSRADSFEKGISSLKVDVEDHRQELQAGRDLSQKVTSLESTVEKREQALKTDLSDLTDHVQQLRKDLKALTCQLANLKNNGSEVACCPLHWTEHEGSCYWFSESEKSWPEADKYCRLENSHLVVVNSLEEQNFLQNRLANVVSWIGLTDQNGPWRWVDGTDFEKGFKNWAPLQPDNWFGHGLGGGEDCAHITTGGPWNDDVCQRTFRWICEMKLAKES ?
-0.039

Provenance of the data: the supplement of paper PMC8728848
